Data origin, for the record: ChEMBL document CHEMBL1201862

- System: 786-0
- experiment: NCI tumour cell line growth inhibition, 48 h
The source made the active and inactive calls. Cut-off read from the data, not from the text of the source: active = GI50 up to about 1.1 µM and inactive = higher.
Pick one: yes for active, no for inactive

{"compound": "COC(=O)/C=C(/OC)[C@H](C)[C@H](/C=C/c1csc(-c2csc(C(C)C)n2)n1)OC", "assigned class": "no"}
{"compound": "CC(C)[C@](O)(C(=O)OCC1=CC[N+]2([O-])CC[C@@H](O)[C@@H]12)[C@H](C)O (stereo partly drawn) [INDICINE N-OXIDE]", "assigned class": "no"}
{"compound": "CC(=O)O[C@H]1CC[C@@]2(C)C(=CC[C@H]3[C@@H]4C[C@H](N5CCN(C)CC5)[C@H](OC(C)=O)[C@@]4(C)CC[C@@H]32)C1", "assigned class": "no"}
{"compound": "C/C(=N/NC(=S)N1CCCCC1)c1cccc(/C(C)=N\\NC(=S)N2CCCCC2)n1", "assigned class": "no"}
{"compound": "CCCCCCCCCCCCCCCCP(=O)(O)OCC(N)C(=O)O (stereo not drawn)", "assigned class": "no"}
{"compound": "O=C1c2ccccc2C2(O)Nc3cc(O)ccc3C12O (stereo not drawn)", "assigned class": "no"}

# fetch the recorded call for `COCn1cnc2c(=O)nc(SC)n(-c3ccccc3)c21` here
no

Can you look up the reported call for NC(=O)c1ncn(C2CCC(CP(=O)(O)O)C2)c1N (stereo not drawn) for me?
no

I'd appreciate the recorded outcome for `CC(=O)O/N=C(/C)c1ccccc1O` from this test.
no

Short answer needed: outcome of this test for `O=[N+]([O-])/C=C(\CS(=O)(=O)c1ccccc1)c1ccc2c(c1)OCO2` ?
no

Hi team, can someone confirm the assay call for `CNCc1cc(OC)ccc1-c1ccc(OC)c(OC)c1OC` ?
no

* * *

- Tested on: SNB-75
- experiment: NCI tumour cell line growth inhibition, 48 h
The source made the active and inactive calls. Rule as the data show it: active = GI50 up to about 1.1 µM and inactive = higher.
Form entry, call: pick from active, inactive

Illustrative cases are given below, each with its answer.
{"molecule": "COc1c2c3c4c(c(OC)c(=O)c5c(O)cc(OC)c(c6c(OC)cc(O)c(c1=O)c63)c54)C(C(C)O)C2C(C)O (stereo not drawn)", "assigned class": "active"}
{"molecule": "Cc1nc2c(nc1C)C(=O)c1cc(O)ccc1C2=O", "assigned class": "inactive"}
{"molecule": "CCOC(=O)C(CC/C=C\\c1ccccc1)N1CCC[C@H]1C(=O)OC (stereo partly drawn)", "assigned class": "inactive"}
{"molecule": "Fc1ccc(-c2sc(-c3cccs3)cc2Cc2cccs2)cc1", "assigned class": "inactive"}
{"molecule": "O=S(=O)(CCBr)CCBr", "assigned class": "inactive"}
{"molecule": "CCCCNC(=S)Nn1c(-c2ccccc2)nc2ccccc2c1=O", "assigned class": "inactive"}
{"molecule": "Cc1cc(C)c2c(c1)CC1(Cc3c(C)ccc(C)c3C1=O)C2=O (stereo not drawn)", "assigned class": "inactive"}

Please state the recorded outcome for this molecule: `Cc1ccc(S(=O)(=O)Nc2ccccc2C(C)(C)C)cc1`
inactive

* * *

- Test system: SK-MEL-5
- experiment: NCI tumour cell line growth inhibition, 48 h
Activity calls are given as the source filed them. No stated cut-off is given here; in the data, active = GI50 up to about 1.1 µM and inactive = higher.
Catalogue of GI50 readings, one per entry.

Recorded results for 5 molecules are shown here.
{"molecule": "COC(=O)CC(SCCO)SCCO", "GI50": "> 100 µM (inactive)"}
{"molecule": "NCCCn1c(Cl)nc2ccccc21", "GI50": "> 100 µM (inactive)"}
{"molecule": "CC(C)(C)OC(=O)N(CCNS(=O)(=O)c1cccc2cnccc12)CCC(=O)ON1C(=O)CCC1=O", "GI50": "> 100 µM (inactive)"}
{"molecule": "COC(=O)c1oc([N+](=O)[O-])c(Cl)c1Cl", "GI50": "9.08 µM (inactive)"}
{"molecule": "Cc1cc(/N=N/c2c(O)ccc3ccccc23)ccc1/N=N/c1cccc([N+](C)(C)C)c1", "GI50": "2.86 µM (inactive)"}

For the molecule `Cc1ccc(NCC(=O)N2CC(=O)Nc3ccccc32)cc1` , what GI50 is on record?
> 100 µM (inactive)

Look at this molecule and give its reported GI50. COc1cccc2c1OC1(C=C2)Oc2ccccc2C(=O)N1C (configuration not stated)
68.1 µM (inactive)
